Overview of reported Inhibition (%) Replicate B across a group of compounds:
# EXPERIMENTAL_SYSTEM: rSmTAChE (Schistosoma mansoni)
# TEST_METHOD_NOTES: biochemical

COMPOUND	UNIT_LABEL	Inhibition (%) Replicate B
CC1(C)CCC(C)(C)c2cc(C#Cc3ccc(C(=O)O)cc3)ccc21 [BRD-K81004638-001-02-5]	%	68.56
CCCC(=O)Nc1ccc2c(c1)OC[C@@H](C)N(Cc1cc(-c3ccccc3)on1)C[C@@H](C)[C@H](OC)CN(C)C2=O [BRD-K35965314-001-01-7]	%	65.51
COc1ccc(C#Cc2ccc3c(c2)O[C@@H](CN(C)S(=O)(=O)c2ccccc2F)[C@@H](C)CN([C@@H](C)CO)S3(=O)=O)cc1 [BRD-K10241968-001-01-1]	%	62.84

* * *

# EXPERIMENTAL_SYSTEM: rSmTAChE (Schistosoma mansoni, UniProt A0A3Q0KMM5)
# Sequence (A0A3Q0KMM5 27-661 limits assumed): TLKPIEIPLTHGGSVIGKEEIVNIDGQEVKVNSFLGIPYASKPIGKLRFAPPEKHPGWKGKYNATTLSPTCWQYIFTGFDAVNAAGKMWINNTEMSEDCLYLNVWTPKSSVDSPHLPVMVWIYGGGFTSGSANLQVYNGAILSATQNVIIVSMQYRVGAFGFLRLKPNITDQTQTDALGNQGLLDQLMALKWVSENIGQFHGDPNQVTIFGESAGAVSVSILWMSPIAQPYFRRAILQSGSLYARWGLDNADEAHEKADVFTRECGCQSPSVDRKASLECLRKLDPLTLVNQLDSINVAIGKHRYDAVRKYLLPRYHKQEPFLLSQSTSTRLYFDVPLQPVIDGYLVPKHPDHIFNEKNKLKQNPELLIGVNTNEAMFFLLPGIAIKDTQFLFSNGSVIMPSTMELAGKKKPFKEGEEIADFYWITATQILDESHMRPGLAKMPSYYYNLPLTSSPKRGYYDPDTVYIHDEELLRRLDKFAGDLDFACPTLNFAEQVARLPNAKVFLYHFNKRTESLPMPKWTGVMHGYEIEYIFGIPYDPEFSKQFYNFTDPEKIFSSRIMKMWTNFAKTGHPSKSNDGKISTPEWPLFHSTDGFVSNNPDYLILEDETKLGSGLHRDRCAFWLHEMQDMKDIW
# TEST_METHOD_NOTES: biochemical
Category | rule: reported Inhibition (%) Replicate A within range, see A = under 70%, B = from 70% up to 80%, C = 80% and over

COMPOUND	CLASS
Clc1ccc(C(Cn2ccnc2)OCc2ccc(Sc3ccccc3)cc2)c(Cl)c1 (stereo not shown)	A
COc1ccc(/C=C/CCCCOc2ccc(C(=O)c3cccc(C(=O)O)c3)cc2CCC(=O)O)cc1 [LY223982, reference compound]	C
COC(=O)CCSCc1ccc(-c2onc(C)c2NC(=O)OC(C)c2ccccc2Cl)cc1 (stereo not shown)	A
COC(=O)C1=C(C)NC(C)=C(C(=O)OC/C=C/c2ccccc2)C1c1cccc([N+](=O)[O-])c1 (stereo not shown)	C
CC(C)(C#N)c1ccc(N2C(=O)OCc3cnc4ccc(-c5cnc6ccccc6c5)cc4c32)cc1	B
CC(C)c1onc(-c2c(Cl)cccc2Cl)c1COc1ccc(/C=C/c2cccc(C(=O)O)c2)c(Cl)c1 [GW-4064, reference compound]	A
C[C@H](CO)N1C[C@H](C)[C@@H](CN(C)C(=O)Nc2cc(F)ccc2F)Oc2cc(-c3cccc(C#N)c3)ccc2S1(=O)=O	A
C[C@H]1[C@H](C)CC[C@]2(C(=O)O)CC[C@]3(C)C(=CC[C@@H]4[C@@]5(C)CC[C@H](O)C(C)(C)[C@@H]5CC[C@]43C)[C@H]12	B
CCCC#Cc1ccc([C@H]2[C@@H](CO)N3C(=O)CN(S(=O)(=O)c4ccccc4C)C[C@@H]23)cc1	B
CCCNC(=O)Nc1ccc(Oc2ncnc3cc(OC)c(OC)cc23)cc1Cl	B

* * *

# EXPERIMENTAL_SYSTEM: rSmTAChE (Schistosoma mansoni)
# Type: biochemical
Structures can show the parent of a compound that is named as a salt.

COMPOUND	Data Mode (curve class), rSmTAChE
CNC(=O)Oc1ccc2c(c1)[C@]1(C)CCN(C)[C@@H]1N2C [Physostigmine sulfate, reference compound]	decreasing
Oc1cc(Cl)ccc1Oc1ccc(Cl)cc1Cl [Triclosan, reference compound]	decreasing

* * *

Overview of reported pIC50 across a group of molecules:
# EXPERIMENTAL_SYSTEM: recombinant human acetylcholinesterase, rHsAChE (Homo sapiens, UniProt P22303)
# Sequence (P22303 32-614): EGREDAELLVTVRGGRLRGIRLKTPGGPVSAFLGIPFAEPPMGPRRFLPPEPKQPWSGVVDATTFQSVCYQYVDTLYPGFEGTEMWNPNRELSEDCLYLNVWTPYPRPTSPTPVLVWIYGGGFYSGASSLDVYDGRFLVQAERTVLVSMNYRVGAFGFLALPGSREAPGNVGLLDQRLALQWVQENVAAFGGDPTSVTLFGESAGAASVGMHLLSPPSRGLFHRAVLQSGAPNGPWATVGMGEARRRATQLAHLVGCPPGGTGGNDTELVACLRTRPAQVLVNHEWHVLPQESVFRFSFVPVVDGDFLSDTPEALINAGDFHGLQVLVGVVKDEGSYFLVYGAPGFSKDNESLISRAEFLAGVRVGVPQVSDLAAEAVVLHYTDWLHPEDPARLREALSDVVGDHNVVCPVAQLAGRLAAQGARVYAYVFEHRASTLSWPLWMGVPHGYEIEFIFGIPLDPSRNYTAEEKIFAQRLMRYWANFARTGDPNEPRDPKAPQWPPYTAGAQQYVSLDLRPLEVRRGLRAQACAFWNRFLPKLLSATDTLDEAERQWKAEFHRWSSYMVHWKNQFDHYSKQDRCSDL
# TEST_METHOD_NOTES: biochemical
# MEASUREMENT_SETUP: read-out: qAC50 (IC50), rHsAChE
pIC50: −log10 of the molar value.

SMILES_NOTATION	VALUE_PREFIX	pIC50
CC(=O)c1cc([N+](=O)[O-])c(Sc2cccc(Cl)c2Cl)s1	<	4.42
COCCOc1ccc2c(c1)ncn2-c1ccc2cccc(N3CCC(N)CC3)c2n1	=	4.68
CC(C)=CCC/C(C)=C/CC/C(C)=C/CSc1ccccc1C(=O)O	=	4.86
CC(C)Oc1ccc(-c2cnc3c(-c4ccnc5ccccc45)cnn3c2)cc1	<	4.87
